Molecular target: T1, human GIP receptor (human) (UniProt P48546)
T1 sequence (looked up): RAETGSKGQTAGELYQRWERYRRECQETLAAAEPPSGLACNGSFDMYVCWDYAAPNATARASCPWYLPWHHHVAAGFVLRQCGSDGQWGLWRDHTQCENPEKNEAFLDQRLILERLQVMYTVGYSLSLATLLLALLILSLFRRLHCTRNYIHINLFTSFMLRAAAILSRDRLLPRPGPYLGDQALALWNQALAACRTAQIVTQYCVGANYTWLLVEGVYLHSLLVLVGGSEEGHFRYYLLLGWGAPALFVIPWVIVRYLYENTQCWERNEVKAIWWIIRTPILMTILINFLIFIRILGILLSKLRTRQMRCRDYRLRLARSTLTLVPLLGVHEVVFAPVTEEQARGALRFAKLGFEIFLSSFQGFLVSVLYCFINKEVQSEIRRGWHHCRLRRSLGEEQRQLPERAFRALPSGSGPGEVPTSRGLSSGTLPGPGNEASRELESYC
Experiment: cell-based or functional assay
Assign cAMP Rel EC50 (in the presence of 1% HSA) to each entry below.
Return type: number; implicit unit nM.

Query block: Name the reported cAMP Rel EC50 (in the presence of 1% HSA) value associated with the binder YXQGTXTSDXSIXLDKKAQXAFIEYLSEGGPSSGEPPPSGSEE (Lys acylated (γ-Glu)2-C18 diacid; non-natural residues; C-terminal amide; synthetic construct; SITE 2: note = 2-Aminoisobutyric Acid; SITE 6: note = alpha-methyl-2-fluoro-L-phenylalanine; SITE 10: note = 3-(4-Pyridyl)-L-alanine; SITE 13: note = alpha-methyl-leucine; SITE 17: note = Lysine is chemically modified through conjugation of the epsilon-amino group of the Lysine) [Example 632]
Result block: 5.48

Query block: // same read-out, input: YXQGTFTSDFSXXLDKKAQXAFIEYLLAGGPSSGEPPPSEG (synthetic construct; SITE 2: note = 2-Aminoisobutyric Acid; SITE 12: note = L-ornithine; SITE 13: note = alpha-methyl-leucine; SITE 17: note = Lysine is chemically modified through conjugation of the epsilon-amino group of the Lysine side chain with (2-[2-(2-Amino-ethoxy)-ethoxy]-acetyl)-(gamma-Glu)) [Example 29]
Result block: 70.1

Query block: // same read-out, input: YXQGTFTSDFSRXLDKKAQXAFIEYLLEGGPSSGAPPPGGS (synthetic construct; SITE 2: note = 2-Aminoisobutyric Acid; SITE 13: note = alpha-methyl-leucine; SITE 17: note = Lysine is chemically modified through conjugation of the epsilon-amino group of the Lysine side chain with (2-[2-(2-Amino-ethoxy)-ethoxy]-acetyl)-(gamma-Glu)-CO-(CH2) 18-CO2H; SITE 20: n) [Example 41]
Result block: 97.9

Query block: // same read-out, input: YXQGTXTSDXXIXLDXKAQXEFIEXLVEGGPSSGEPPPESE (not fully specified; non-natural residues; AEEA-γGlu-diacid acylated Lys; C-terminal amide; synthetic construct; SITE 2: note = 2-Aminoisobutyric Acid; SITE 6: note = alpha-methyl-2-fluoro-L-phenylalanine; SITE 10: note = 3-(4-Pyridyl)-L-alanine; SITE 11: note = alpha-methyl-L-serine; SITE 13: note = alpha-methyl-leucine; SITE 16: note = L-ornithine; SITE 17: note = Lysine is chemically mo) [Example 1157]
Result block: 1.28

Query block: // same read-out, input: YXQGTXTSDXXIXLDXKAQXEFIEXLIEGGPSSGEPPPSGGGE (non-natural residues, lysine acylation, C-terminal amide; synthetic construct; SITE 2: note = 2-Aminoisobutyric Acid; SITE 6: note = alpha-methyl-L-phenylalanine; SITE 10: note = 3-(4-Pyridyl)-L-alanine; SITE 11: note = alpha-methyl-L-serine; SITE 13: note = alpha-methyl-leucine; SITE 16: note = L-ornithine; SITE 17: note = Lysine is chemically modified th) [Example 1175]
Result block: 0.768

Query block: // same read-out, input: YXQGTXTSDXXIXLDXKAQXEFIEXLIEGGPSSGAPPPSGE (non-natural residues; lysine acylated with AEEA linker C18 diacid; C-amide; synthetic construct; SITE 2: note = 2-Aminoisobutyric Acid; SITE 6: note = alpha-methyl-L-phenylalanine; SITE 10: note = 3-(4-Pyridyl)-L-alanine; SITE 11: note = alpha-methyl-L-serine; SITE 13: note = alpha-methyl-leucine; SITE 16: note = L-ornithine; SITE 17: note = Lysine is chemically modified th) [Example 1164]
Result block: 1.17
